# Tested on: conversion of CoA into 4′-phosphopantetheine in serum
# Type: biochemical
# Measurement parameters: serum pre-treated with the agent, CoA 10 μM, 3 hours
Endpoint: effect on conversion (degradation) of CoA into 4′-phosphopantetheine in serum

[
  {
    "Compound string": "O=S(=O)(O)c1cc(N=C=S)ccc1C=Cc1ccc(N=C=S)cc1S(=O)(=O)O",
    "Result": "able to inhibit"
  },
  {
    "Compound string": "Cc1ccc(C(=O)Nc2ccc(S(=O)(=O)O)c3cc(S(=O)(=O)O)cc(S(=O)(=O)O)c23)cc1NC(=O)c1cccc(NC(=O)Nc2cccc(C(=O)Nc3cc(C(=O)Nc4ccc(S(=O)(=O)O)c5cc(S(=O)(=O)O)cc(S(=O)(=O)O)c45)ccc3C)c2)c1",
    "Result": "able to inhibit"
  }
]
